Assay remarks: Inhibition of TNF-alpha-induced NF-kappaB activation in human HeLa cells by SEAP reporter gene assay
Assay type: cell-based
Property: IC50 (nM)
Quick note: give the figure in nM, leave out the unit.

COc1cc2c(cc1OC)[C@]1(O)C(=O)c3ccc4c(c3O[C@@H]1CO2)C=CC(C)(C)O4 [TEPHROSIN]
110
CC(C)=CCC/C(C)=C/Cc1c(O)ccc(C(=O)/C=C/c2ccc(O)cc2)c1O [XANTHOANGELOL]
1030
COC1=CC(=O)[C@]2(C=C1OC)OC[C@H]1Oc3c(ccc4c3C=CC(C)(C)O4)C(=O)[C@H]12 [AMORPHISPIRONONE]
7390

Prompt line: State its IC50 for this molecule: COc1cc(CCc2ccccc2)c(C(=O)O)c(O)c1CC=C(C)C [AMORFRUTIN A]
Response line: 840

Prompt line: State its IC50 for this molecule: COc1cc2c(cc1OC)[C@@H]1C(=O)c3ccc4c(c3O[C@@H]1CO2)C=CC(C)(C)O4 [DEGUELIN]
Response line: 220

Prompt line: State its IC50 for this molecule: COC1=CC(=O)[C@]2(C=C1OC)OC[C@H]1Oc3c4c(cc(O)c3C(=O)[C@H]12)OC(C)(C)C=C4
Response line: 2120

Prompt line: State its IC50 for this molecule: COc1c(CC=C(C)C)c(O)cc(CCc2ccccc2)c1C(=O)O
Response line: 1750

Prompt line: State its IC50 for this molecule: CC1=C(O)C(=O)C=C2C1=CC=C1[C@@]2(C)CC[C@@]2(C)[C@@H]3C[C@](C)(C(=O)O)CC[C@]3(C)CC[C@]12C [CELASTROL]
Response line: 150
